# target-or-test-system: Hepatocyte Growth Factor (HGF), human (human, UniProt P14210 32-728)
# Sequence (P14210 32-728): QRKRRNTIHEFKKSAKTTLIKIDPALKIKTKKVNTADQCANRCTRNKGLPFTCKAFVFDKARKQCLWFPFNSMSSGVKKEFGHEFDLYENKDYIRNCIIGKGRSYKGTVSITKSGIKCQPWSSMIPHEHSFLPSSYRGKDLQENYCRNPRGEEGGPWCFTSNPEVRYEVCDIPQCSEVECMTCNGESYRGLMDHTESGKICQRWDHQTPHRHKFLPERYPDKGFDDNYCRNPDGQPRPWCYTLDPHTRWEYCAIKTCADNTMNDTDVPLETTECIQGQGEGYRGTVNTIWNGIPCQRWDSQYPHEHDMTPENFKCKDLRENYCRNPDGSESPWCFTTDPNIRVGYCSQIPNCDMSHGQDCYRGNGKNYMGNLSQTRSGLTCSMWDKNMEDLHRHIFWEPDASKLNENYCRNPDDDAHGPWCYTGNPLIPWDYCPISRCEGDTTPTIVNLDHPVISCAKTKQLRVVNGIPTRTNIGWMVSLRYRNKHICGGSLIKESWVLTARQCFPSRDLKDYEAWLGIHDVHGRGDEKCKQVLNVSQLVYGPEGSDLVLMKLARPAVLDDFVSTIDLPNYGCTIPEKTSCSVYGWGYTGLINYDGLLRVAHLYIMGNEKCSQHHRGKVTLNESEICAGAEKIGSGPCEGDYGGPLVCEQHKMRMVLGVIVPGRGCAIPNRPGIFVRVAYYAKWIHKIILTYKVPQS
# test-method-notes: ELISA
endpoint-name: EC50 (nM)
Give the value, in units of nM, as a plain number.

HC 9/SLC 5 (antibody) chain 1: GQGTLVTVSSASTKGPSVFQPVLHQPPAMSSALGTTIRLTCTLRNDHDIGVYSVYWYQQRPGHPPRFLLRYFSQSDKSQGPQVPPRFSGSKDVARNRGYLSISELQPEDEAMYYCAMGARSRCWPRGFQSKHNSVTHVFGSGTQLTVLSQPKATPSVTLFPPSSEELQANKATLVCLMNDFYPGILTVTWKADGTPITQGVEMTTPSKQSNNKYAASSYLSLTPEQWRSRRSYSCQVMHEGSTVEKTVAPAECS chain 2: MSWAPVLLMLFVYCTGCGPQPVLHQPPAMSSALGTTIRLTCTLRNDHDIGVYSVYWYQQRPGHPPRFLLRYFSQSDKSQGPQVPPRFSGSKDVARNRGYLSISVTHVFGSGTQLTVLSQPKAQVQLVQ = 0.065

Now consider the entry below.
Lab note: HC 5/SLC 9 (antibody) chain 1: GQGTLVTVSSASTKGQPVLHQPPAMSSALGTTIRLTCTLRNDHDIGVYSVYWYQQRPGHPPRFLLRYFSQSDKSQGPQVPPRFSGSKDVARNRGYLSISELQPEDEAMYYCAMGARSRCWPRGFQSKHNSVTHVFGSGTQLTVLSQPKATPSVTLFPPSSEELQANKATLVCLMNDFYPGILTVTWKADGTPITQGVEMTTPSKQSNNKYAASSYLSLTPEQWRSRRSYSCQVMHEGSTVEKTVAPAECS chain 2: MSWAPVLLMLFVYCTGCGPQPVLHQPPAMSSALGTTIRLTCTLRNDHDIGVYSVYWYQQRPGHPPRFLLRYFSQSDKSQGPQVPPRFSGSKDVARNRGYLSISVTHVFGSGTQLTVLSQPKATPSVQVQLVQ gave EC50 of 0.052
